Origin of values: patent US9884825B2

attribute-measured: melting point (°C)
Answers are plain numbers, in °C.

Some solved cases for reference:
CCc1ccc(/C=C2\CN(Cc3ccccc3)C/C(=C\c3ccc(CC)cc3)C2=O)cc1 [5c] : 119
O=C1/C(=C/c2ccc(Cl)cc2)CN(S(=O)(=O)c2ccccc2)C/C1=C\c1ccc(Cl)cc1 [4e] : 237
CCN1C/C(=C\c2ccc(F)cc2)C(=O)/C(=C/c2ccc(F)cc2)C1 [6c] : 114
CCCCc1ccc(/C=C2\CN(S(=O)(=O)c3ccccc3)C/C(=C\c3ccc(CCCC)cc3)C2=O)cc1 [4g] : 134
CCc1ccc(/C=C2\CN(S(=O)(=O)c3ccc(C)cc3)C/C(=C\c3ccc(CC)cc3)C2=O)cc1 [3b] : 165

Dear reader, for each entry below, please note its melting point.
1. Cc1ccc(S(=O)(=O)N2C/C(=C\c3ccc(Br)cc3)C(=O)/C(=C/c3ccc(Br)cc3)C2)cc1 [3a]
2. CCCCCn1cc(CN2CC(=Cc3ccc(C(C)(C)C)cc3)C(=O)C(=Cc3ccc(C(C)(C)C)cc3)C2)nn1 [14c]
3. CCCCc1ccc(/C=C2\CN(S(=O)(=O)c3ccc(C)cc3)C/C(=C\c3ccc(CCCC)cc3)C2=O)cc1 [3h]
4. CCCn1cc(CN2CC(=Cc3ccc(C(C)(C)C)cc3)C(=O)C(=Cc3ccc(C(C)(C)C)cc3)C2)nn1 [14a]
5. CCN1C/C(=C\c2ccc(C(C)(C)C)cc2)C(=O)/C(=C/c2ccc(C(C)(C)C)cc2)C1 [6i]
6. CCCc1ccc(C=C2CN(Cc3cn(CCC)nn3)CC(=Cc3ccc(CCC)cc3)C2=O)cc1 [15a]
7. CCc1ccc(/C=C2\CN(CC)C/C(=C\c3ccc(CC)cc3)C2=O)cc1 [6e]
8. CCCCCn1cc(CN2CC(=Cc3ccc(CCCC)cc3)C(=O)C(=Cc3ccc(CCCC)cc3)C2)nn1 [16c]

Solution:
214
146
148
182
111
133
178
145
